Molecular target: LYP (Homo sapiens, UniProt Q9Y2R2)
Sequence (Q9Y2R2 whole entry): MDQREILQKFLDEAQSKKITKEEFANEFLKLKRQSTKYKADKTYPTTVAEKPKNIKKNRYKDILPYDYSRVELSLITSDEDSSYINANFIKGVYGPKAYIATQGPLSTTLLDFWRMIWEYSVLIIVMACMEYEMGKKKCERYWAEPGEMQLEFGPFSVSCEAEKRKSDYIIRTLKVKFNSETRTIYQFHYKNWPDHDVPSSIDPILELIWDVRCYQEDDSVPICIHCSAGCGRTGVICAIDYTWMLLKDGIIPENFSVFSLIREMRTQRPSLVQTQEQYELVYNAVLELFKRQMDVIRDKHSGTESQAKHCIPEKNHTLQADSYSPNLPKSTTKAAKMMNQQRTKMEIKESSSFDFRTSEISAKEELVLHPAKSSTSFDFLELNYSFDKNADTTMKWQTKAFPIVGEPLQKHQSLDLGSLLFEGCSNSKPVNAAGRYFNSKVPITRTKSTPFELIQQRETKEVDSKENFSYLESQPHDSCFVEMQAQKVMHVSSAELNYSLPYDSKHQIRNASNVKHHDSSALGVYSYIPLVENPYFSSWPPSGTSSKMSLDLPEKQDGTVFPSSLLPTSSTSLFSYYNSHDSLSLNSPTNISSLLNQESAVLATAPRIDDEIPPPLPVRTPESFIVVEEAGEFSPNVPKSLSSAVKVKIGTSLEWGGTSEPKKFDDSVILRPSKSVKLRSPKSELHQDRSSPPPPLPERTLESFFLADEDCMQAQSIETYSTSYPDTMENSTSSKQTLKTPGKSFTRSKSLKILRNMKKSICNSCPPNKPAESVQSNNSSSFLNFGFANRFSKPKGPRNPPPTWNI
Assay: PTP inhibition assay (pNPP)
Type: biochemical
Conditions: pNPP at Km, pH 7.0, 25° C.
pIC50: −log10 of the molar value.
This section presents compounds with their documented pIC50 values.

For orientation, consider the following solved cases.
>>> experimental_result("O=C(Nc1ccc(-c2ccccc2)cc1)C(c1ccccc1)S(=O)(=O)O (centres unmarked) [Compound L319N08]")
"< 3.70"
>>> experimental_result("O=C(NCCNC(=O)C(c1ccccc1)S(=O)(=O)O)c1cccc(C(=O)c2ccccc2)c1 (centres unmarked) [Compound L319-02-A60]")
"< 3.70"
>>> experimental_result("O=C(Nc1nc2ccccc2s1)C(c1ccccc1Cl)S(=O)(=O)O (centres unmarked) [Compound L319N15-18]")
"< 4.00"

[ask] Which value of pIC50 has been reported for O=C(Nc1nc2ccc(Cl)cc2s1)C(c1ccccc1)S(=O)(=O)O (centres unmarked) [Compound L319N15-06] in the records?
[reply] 4.64

[ask] Reported pIC50, compound O=C(Nc1nc2ccc(F)cc2s1)C(c1ccccc1)S(=O)(=O)O (centres unmarked) [Compound L319N15-05] : ____
[reply] 3.82

[ask] Which pIC50 is reported for this compound? Cc1cccc2sc(NC(=O)C(c3ccccc3)S(=O)(=O)O)nc12 (centres unmarked) [Compound L319N15-02]
[reply] 3.96

[ask] Which pIC50 is listed for O=C(Nc1nccs1)C(c1ccccc1)S(=O)(=O)O (centres unmarked) [Compound L319N13] ?
[reply] < 4.00

[ask] Quick one: pIC50 of O=C(C(c1ccccc1)S(=O)(=O)O)N1CCC(c2ccc(Cl)c(Cl)c2)CC1 (centres unmarked) [Compound L319N47] ?
[reply] 4.38

[ask] Please give the measured pIC50 for this compound: O=C(Nc1ccc2nc(C(F)(F)F)[nH]c2c1)C(c1ccccc1)S(=O)(=O)O (centres unmarked) [Compound L319M54]
[reply] < 3.70

###

Molecular target: SHP2 (Homo sapiens, UniProt Q06124)
Sequence (Q06124 224-528): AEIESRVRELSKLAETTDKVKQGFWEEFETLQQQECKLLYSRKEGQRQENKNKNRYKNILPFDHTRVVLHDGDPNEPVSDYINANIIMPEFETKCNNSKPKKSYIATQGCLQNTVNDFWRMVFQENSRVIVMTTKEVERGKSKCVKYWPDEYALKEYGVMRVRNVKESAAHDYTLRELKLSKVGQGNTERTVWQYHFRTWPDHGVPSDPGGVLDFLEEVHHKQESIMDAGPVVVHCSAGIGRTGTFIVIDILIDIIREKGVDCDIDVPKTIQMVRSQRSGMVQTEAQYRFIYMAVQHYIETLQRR
Test: SHP2 phosphatase inhibition assay (pNPP)
Assay type: biochemical
Conditions: pNPP at Km, pH 7.0, 25° C.; read-out: IC50 SHP2
property_label: IC50

>>> experimental_result("O=C(Nc1ccc(-c2ccccc2)cc1)C(c1ccccc1)S(=O)(=O)O (stereo not shown) [Compound L319N08]")
"> 100 µM"

[ask] What measured IC50 is associated with O=C(Nc1nc2ccccc2s1)C(c1ccccc1F)S(=O)(=O)O (stereo not shown) [Compound L319N15-17] on SHP2 (Homo sapiens, UniProt Q06124)?
[reply] > 100 µM

[ask] Lab request: please report IC50 under test system SHP2 (Homo sapiens, UniProt Q06124) for CCCCc1ccc(NC(=O)C(=O)Nc2ccccc2NC(=O)C(c2ccccc2)S(=O)(=O)O)cc1 (stereo not shown) [Compound L319-21-M06]
[reply] > 50 µM

[ask] Record lookup: for SHP2 (Homo sapiens, UniProt Q06124), what IC50 belongs to O=C(Nc1ccc(N2CCOCC2)cc1)C(c1ccccc1)S(=O)(=O)O (stereo not shown) [Compound L319M68] ?
[reply] > 200 µM

[ask] Missing value: IC50, SHP2 (Homo sapiens, UniProt Q06124), entry O=C(Nc1ccc(I)cc1)C(=O)Nc1ccc(NC(=O)C(c2ccccc2)S(=O)(=O)O)cc1 (stereo not shown) [Compound L319-20-M24] . Fill in?
[reply] 1.5 µM

[ask] Item O=C(Nc1nc2ccc(O[N+](=O)[O-])cc2s1)C(c1ccccc1)S(=O)(=O)O (stereo not shown) [Compound L319N15-07] with SHP2 (Homo sapiens, UniProt Q06124) - IC50?
[reply] > 200 µM

[ask] Notebook: pull reported IC50 for SHP2 (Homo sapiens, UniProt Q06124), entry O=C(NCc1ccc(NC(=O)C(c2ccccc2)S(=O)(=O)O)cc1)C(=O)Nc1ccc(-c2cccs2)cc1 (stereo not shown) [Compound L319-23-M74]
[reply] 3.5 µM

[ask] Look up IC50 with SHP2 (Homo sapiens, UniProt Q06124) for this molecule: O=C(CS(=O)(=O)O)Nc1ccc2nc(C(F)(F)F)[nH]c2c1
[reply] > 100 µM
